Target: PSMA (Homo sapiens)
Sequence (Q04609 44-750 limits assumed): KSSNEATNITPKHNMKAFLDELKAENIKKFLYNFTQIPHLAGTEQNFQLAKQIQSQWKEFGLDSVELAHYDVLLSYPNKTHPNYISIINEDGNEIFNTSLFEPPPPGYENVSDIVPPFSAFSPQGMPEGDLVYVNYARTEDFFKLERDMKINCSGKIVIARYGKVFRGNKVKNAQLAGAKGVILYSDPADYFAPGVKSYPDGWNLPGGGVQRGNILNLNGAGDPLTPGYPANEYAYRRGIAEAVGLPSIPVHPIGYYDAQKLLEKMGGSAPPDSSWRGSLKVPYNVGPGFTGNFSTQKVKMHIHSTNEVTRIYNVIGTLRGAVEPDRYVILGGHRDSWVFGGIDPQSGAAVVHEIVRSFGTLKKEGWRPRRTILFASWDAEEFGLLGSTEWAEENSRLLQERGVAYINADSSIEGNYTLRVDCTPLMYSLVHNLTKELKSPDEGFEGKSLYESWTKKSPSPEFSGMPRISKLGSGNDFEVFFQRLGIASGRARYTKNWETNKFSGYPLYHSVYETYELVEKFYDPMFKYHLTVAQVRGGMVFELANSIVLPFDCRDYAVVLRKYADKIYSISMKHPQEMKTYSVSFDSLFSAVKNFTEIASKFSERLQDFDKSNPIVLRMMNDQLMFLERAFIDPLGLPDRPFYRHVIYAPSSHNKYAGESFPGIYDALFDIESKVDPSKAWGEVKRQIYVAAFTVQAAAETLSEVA
Experiment: Binding of 3H-ZJ24 to recombinant hPSMA, Scatchard analysis
Settings: 50 mM Tris buffer pH 7.5, 30 min, 37° C
observationType: Kd (nM)
Numbers only, in nM.

Query: Which Kd value belongs to O=C(O)CCC(NC(=O)NC(CS)C(=O)O)C(=O)O (stereo not shown) ?
Reply: 2

Source: patent US20080311037A1
